Notes on pIC50 obtained with IRE1a (Homo sapiens).
Sequence (O75460 19-977): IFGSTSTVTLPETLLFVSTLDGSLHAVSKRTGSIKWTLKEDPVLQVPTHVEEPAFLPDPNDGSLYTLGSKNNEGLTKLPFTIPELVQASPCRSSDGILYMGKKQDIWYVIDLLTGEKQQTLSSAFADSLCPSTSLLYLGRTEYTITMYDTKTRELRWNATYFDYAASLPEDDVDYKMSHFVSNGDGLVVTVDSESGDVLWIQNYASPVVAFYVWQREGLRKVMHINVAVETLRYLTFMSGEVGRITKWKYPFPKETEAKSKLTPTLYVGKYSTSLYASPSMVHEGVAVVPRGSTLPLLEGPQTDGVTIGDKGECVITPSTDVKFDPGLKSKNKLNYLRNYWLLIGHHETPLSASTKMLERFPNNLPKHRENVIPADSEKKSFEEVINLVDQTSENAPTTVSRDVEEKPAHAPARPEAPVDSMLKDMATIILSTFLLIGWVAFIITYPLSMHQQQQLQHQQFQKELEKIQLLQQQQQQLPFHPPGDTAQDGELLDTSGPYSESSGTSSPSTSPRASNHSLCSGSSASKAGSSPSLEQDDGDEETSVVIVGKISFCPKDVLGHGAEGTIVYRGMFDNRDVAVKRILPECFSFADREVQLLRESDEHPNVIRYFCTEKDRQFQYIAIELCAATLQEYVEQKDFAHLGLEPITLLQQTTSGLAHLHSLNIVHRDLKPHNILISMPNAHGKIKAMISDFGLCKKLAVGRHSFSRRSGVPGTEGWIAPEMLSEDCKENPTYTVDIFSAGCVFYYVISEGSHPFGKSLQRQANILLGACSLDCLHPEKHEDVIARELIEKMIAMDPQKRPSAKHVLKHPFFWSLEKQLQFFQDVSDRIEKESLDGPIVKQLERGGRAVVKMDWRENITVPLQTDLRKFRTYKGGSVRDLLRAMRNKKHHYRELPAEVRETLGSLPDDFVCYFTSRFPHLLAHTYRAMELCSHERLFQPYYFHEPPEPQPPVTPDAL
pIC50: −log10 of the molar value.

smiles-code: N[C@H]1CC[C@H](Nc2ncc3cc(-c4ccc(NS(=O)(=O)c5ccccc5Cl)c(F)c4F)ccc3n2)CC1
observed-value: ≥ 8.30
//
smiles-code: CCc1cc(-c2ccc(NS(=O)(=O)c3ccccc3Cl)c(F)c2)cc2cnc(N[C@H]3CC[C@H](NC(=O)[C@@H](N)C(C)C)CC3)nc12
observed-value: 7.30 to 8.30

Ask: // fetch pIC50; item: CCc1cc(-c2cc(NS(=O)(=O)c3ccccc3Cl)no2)cc2cnc(N[C@H]3CC[C@H](N)CC3)nc12 ; system: IRE1a (Homo sapiens)
Result: ≥ 8.30

Ask: // fetch pIC50; item: CCc1cc(NS(=O)(=O)c2ccccc2Cl)nnc1-c1cc(CC)c2nc(N[C@H]3CC[C@H](N)CC3)ncc2c1 ; system: IRE1a (Homo sapiens)
Result: ≥ 8.30

Ask: // fetch pIC50; item: CCc1cc(-c2cc(NS(=O)(=O)c3ccccc3Cl)n[nH]2)cc2cnc(N[C@H]3CC[C@H](N)CC3)nc12.O=CO ; system: IRE1a (Homo sapiens)
Result: ≥ 8.30

Ask: // fetch pIC50; item: N[C@H]1CC[C@H](Nc2cc3ccc(-c4ccc(NS(=O)(=O)c5ccccc5Cl)c(F)c4)cc3cn2)CC1 ; system: IRE1a (Homo sapiens)
Result: ≥ 8.30

Ask: // fetch pIC50; item: CCc1cc(-c2ccc(NS(=O)(=O)c3ccccc3)cc2C)cc2cnc(N[C@H]3CC[C@H](N)CC3)nc12 ; system: IRE1a (Homo sapiens)
Result: < 7.00

Ask: // fetch pIC50; item: CCc1cc(-c2ccc(NS(=O)(=O)c3ccccc3Cl)cc2C(F)(F)F)cc2cnc(N[C@H]3CC[C@H](N)CC3)nc12 ; system: IRE1a (Homo sapiens)
Result: < 7.00

Ask: // fetch pIC50; item: CCc1cc(-c2ccc(NS(=O)(=O)c3ccccc3OC(F)(F)F)cc2C)cc2cnc(N[C@H]3CC[C@H](N)CC3)nc12 ; system: IRE1a (Homo sapiens)
Result: 7.30 to 8.30

Ask: // fetch pIC50; item: CCc1cc(-n2cc(NS(=O)(=O)c3ccccc3Cl)cn2)cc2cnc(N[C@H]3CC[C@H](N)CC3)nc12 ; system: IRE1a (Homo sapiens)
Result: ≥ 8.30
